Origin of values: the MegaScale stability set (Tsuboyama et al. 2023)

B1: r16_88_TrROS_Hall (parent)
chain: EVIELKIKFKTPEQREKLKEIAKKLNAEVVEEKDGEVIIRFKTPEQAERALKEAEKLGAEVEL

- Variants of: B1
- PROTOCOL_DESCRIPTION: folding stability dG (cDNA display proteolysis); higher = more stable
- CONDITION_PARAMETERS: PBS, room temperature
MEASURED_PARAMETER: folding stability dG (kcal/mol)
Answer with a number only, understood to be in kcal/mol.

Below are worked cases with known answers.
>>> measurement("K52Q")
4.1
>>> measurement("D34S")
4.25
>>> measurement("E55S")
4.51
>>> measurement("A27H")
4.04
>>> measurement("Q46H")
4.23

Asked: Need folding stability dG, item `A27T`
Given back: 4.26

Asked: Need folding stability dG, item `F9R`
Given back: 2.76

Asked: Need folding stability dG, item `K52A`
Given back: 4.52
